experiment: NCI Yeast Anticancer Drug Screen. Data for the mlh1 rad18 strain (AID 175); settings: S. cerevisiae mlh1 rad18 strain growth inhibition; at 50.0 µM; active compounds read high
Compounds without any hit were thinned out: in the full panel of roughly 79,000, 15% have a hit. The source made the active and inactive calls. Cut-off read from the data, not from the text of the source: active = growth inhibition above about 70%; inactive = the rest.
Recorded growth inhibition, one value per entry.

Example entries and their recorded answers appear below.
{"compound": "CCCCCCC(O)C/C=C\\CCCCCCCCO (stereo not drawn)", "growth inhibition": "18.4% (inactive)"}
{"compound": "COc1ccc(C(=O)C(C)C(O)C(=O)O)c(O)c1C (stereo not drawn)", "growth inhibition": "9.15% (inactive)"}

[in] Query growth inhibition for Nc1ccc2[nH]c(=S)sc2c1
[out] 3.35% (inactive)

[in] Query growth inhibition for CCOC(NCc1ccc(OC)c(OC)c1)OCC
[out] 11.3% (inactive)

[in] Query growth inhibition for O=C(O)CCC(=O)C(Cc1ccccc1)NC(=O)c1ccccc1 (stereo not drawn)
[out] -10.4% (inactive)

[in] Query growth inhibition for NC(=O)c1cccc(F)c1
[out] 14.9% (inactive)

[in] Query growth inhibition for CCCCCCC(=O)OCC
[out] 14.2% (inactive)

[in] Query growth inhibition for Cc1nnc2sc(Cl)nn12
[out] 22.8% (inactive)

###

test: NCI Yeast Anticancer Drug Screen. Data for the mec2-1 strain (AID 157); conditions: S. cerevisiae mec2-1 strain, at 50.0 µM, active compounds read high
Compounds without any hit were thinned out: in the full panel of roughly 79,000, 15% have a hit. Calls of active or inactive are those of the source. Rule as the data show it: active = growth inhibition above about 70%; inactive = the rest.
result type: growth inhibition

Example entries and their recorded answers appear below.
{"compound": "CC(=O)SC1CS(=O)(=O)CC1SC(C)=O (stereo not drawn)", "reported result": "52.9% (inactive)"}
{"compound": "Clc1cccc(-c2sc(-c3ccsc3)cc2Cc2ccsc2)c1", "reported result": "-20.1% (inactive)"}
{"compound": "CCCCCCCCC1CO1 (stereo not drawn)", "reported result": "3.55% (inactive)"}

As a next step, examine the compound that follows.
[in] Query growth inhibition for O=C(Nc1ccc(Cl)c(Cl)c1)C1C(=O)N(c2ccc(Cl)c(Cl)c2)C(=O)/C1=N\O (stereo not drawn)
[out] -4.3% (inactive)

###

Recorded growth inhibition, one value per entry.
test: NCI Yeast Anticancer Drug Screen. Data for the mec2-1 strain (AID 157); details: S. cerevisiae mec2-1 strain, at 50.0 µM, active compounds read high
The panel holds about 79,000 compounds, 15% with a hit somewhere; the sample as a whole holds those more often.
# output: bare number, implied unit %

{"molecule": "CCC12OC3(CC)C4C(=O)OC1C1(CC)OC4(CC)C3C(=O)OC21", "reported result": -5.6}
{"molecule": "CC(=O)Nc1nc2c(s1)CCc1ccccc1-2", "reported result": 13.8}
{"molecule": "OC(c1ccncc1)(c1ccc(Cl)cc1)c1cccs1 (stereo unspecified)", "reported result": 11.2}
{"molecule": "C=CCN1C=CC=C/C1=C\\C=C(/C#N)C(=O)OCC", "reported result": 12.7}
{"molecule": "O=S(=O)(c1ccccc1)N1N=C2c3ccccc3CCC[C@H]2C1c1ccccc1 (stereo partly specified)", "reported result": -16.4}

As a next step, examine the molecule that follows.
[in] Query growth inhibition for CC(C)c1cccc(C(C)C)c1N1C(=O)C(=O)C(c2nc3ccccc3s2)C(=O)C1=O
[out] -17.1
